Molecular target: B1 bradykinin receptor (Homo sapiens, UniProt P46663)
Sequence (P46663 whole entry): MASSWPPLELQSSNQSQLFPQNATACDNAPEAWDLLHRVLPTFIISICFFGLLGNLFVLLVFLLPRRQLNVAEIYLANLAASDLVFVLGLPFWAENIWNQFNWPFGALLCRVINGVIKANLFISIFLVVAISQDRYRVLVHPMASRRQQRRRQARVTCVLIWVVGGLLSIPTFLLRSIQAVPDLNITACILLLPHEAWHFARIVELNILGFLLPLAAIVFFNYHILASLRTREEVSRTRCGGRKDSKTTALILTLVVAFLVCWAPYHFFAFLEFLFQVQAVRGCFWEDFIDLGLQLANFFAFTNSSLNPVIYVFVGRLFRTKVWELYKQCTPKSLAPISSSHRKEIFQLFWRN
pKi: −log10 of the molar value.
Kindly return YES if reported pKi is no lower than 9; return NO if it is lower.

Known results for molecules:
chemical_smiles=C[C@@H](NC(=O)C1(NC(=O)c2cc(C3CC3)on2)CC1)c1ncc(-c2cc(Cl)cc(Cl)c2OCC(F)F)cc1F target_or_test_system="B1 bradykinin receptor (Homo sapiens, UniProt P46663)" category=NO
chemical_smiles=COC(=O)c1c(Cl)cc(Cl)cc1-c1ccc([C@@H](C)NC(=O)C2(NC(=O)C(F)(F)F)CC2)c(F)c1 target_or_test_system="B1 bradykinin receptor (Homo sapiens, UniProt P46663)" category=YES
chemical_smiles=COC(=O)c1c(Cl)cc(Cl)cc1-c1ccc([C@@H](C)NC(=O)C2(NC(=O)c3cc(OC)no3)CC2)c(F)c1 target_or_test_system="B1 bradykinin receptor (Homo sapiens, UniProt P46663)" category=YES

Could you please find out whether CC(C)Oc1c(Cl)cc(Cl)cc1-c1ccc([C@@H](C)NC(=O)C2(NC(=O)C(F)(F)F)CC2)c(F)c1 has pKi that meets 9 or exceeds it?
NO

Next record, please: CCc1cc(C(=O)NC2(C(=O)N[C@H](C)c3ncc(-c4cc(Cl)cc(Cl)c4OCC(F)F)cc3F)CC2)no1
NO

----------
# clearance per record follows
experiment: Clearance in Mongrel dog at 1 mg/kg, iv; format: ADME, organism-based, Canis lupus familiaris; parameters: dose 1 mg/kg, route intravenous; settings: in vivo
Write it as a number; the unit mL/min/kg goes unstated.

Guide cases for clearance, answers given:
chemical_smiles=COc1cc(C(=O)NC2(C(=O)N[C@H](C)c3ncc(-c4cc(Cl)cc(Cl)c4OCC(F)F)cc3F)CC2)on1 result_units=mL/min/kg observed_result=1.2
chemical_smiles=CCc1cc(C(=O)NC2(C(=O)N[C@H](C)c3ncc(-c4cc(Cl)cc(Cl)c4OCC(F)F)cc3F)CC2)no1 result_units=mL/min/kg observed_result=14
chemical_smiles=C[C@@H](NC(=O)C1(NC(=O)c2ccon2)CC1)c1ncc(-c2cc(Cl)cc(Cl)c2OCC(F)F)cc1F result_units=mL/min/kg observed_result=2
chemical_smiles=Cc1cc(C(=O)NC2(C(=O)N[C@H](C)c3ncc(-c4cc(Cl)cc(Cl)c4OCC(F)F)cc3F)CC2)no1 result_units=mL/min/kg observed_result=4.5
chemical_smiles=C[C@@H](NC(=O)C1(NC(=O)c2cc(Cl)no2)CC1)c1ncc(-c2cc(Cl)cc(Cl)c2OCC(F)F)cc1F result_units=mL/min/kg observed_result=2.6
chemical_smiles=CCOc1c(Cl)cc(Cl)cc1-c1cnc([C@@H](C)NC(=O)C2(NC(=O)c3ccno3)CC2)c(F)c1 result_units=mL/min/kg observed_result=7

So what's the measured clearance for this one? CCOc1cc(C(=O)NC2(C(=O)N[C@H](C)c3ncc(-c4cc(Cl)cc(Cl)c4OCC(F)F)cc3F)CC2)on1
3

Next record, please: C[C@@H](NC(=O)C1(NC(=O)c2cc(C3CC3)on2)CC1)c1ncc(-c2cc(Cl)cc(Cl)c2OCC(F)F)cc1F
13

----------
Attribute: Papp
assay: Apparent permeability by cell based assay; assay type: ADME; details: not told
Field: numeric (×10⁻⁶ cm/s). Do not append units.

Solved cases below.
chemical_smiles=C[C@@H](NC(=O)C1(NC(=O)C(F)(F)F)CC1)c1ncc(-c2cc(Cl)cc(Cl)c2OCC(F)F)cc1F measured_endpoint=Papp observed_result=23
chemical_smiles=C[C@@H](NC(=O)C1(NC(=O)c2cc(Cl)no2)CC1)c1ncc(-c2cc(Cl)cc(Cl)c2OCC(F)F)cc1F measured_endpoint=Papp observed_result=26
chemical_smiles=COc1cc(C(=O)NC2(C(=O)N[C@H](C)c3ncc(-c4cc(Cl)cc(Cl)c4OCC(F)F)cc3F)CC2)on1 measured_endpoint=Papp observed_result=28
chemical_smiles=C[C@@H](NC(=O)C1(NC(=O)c2ccno2)CC1)c1ncc(-c2cc(Cl)cc(Cl)c2OCC(F)F)cc1F measured_endpoint=Papp observed_result=29
chemical_smiles=CCc1cc(C(=O)NC2(C(=O)N[C@H](C)c3ncc(-c4cc(Cl)cc(Cl)c4OCC(F)F)cc3F)CC2)no1 measured_endpoint=Papp observed_result=25

Attention now turns to another entry.
I'd like to know its Papp. The compound in question is C[C@@H](NC(=O)C1(NC(=O)C(F)(F)F)CC1)c1ccc(-c2cc(Cl)cc(Cl)c2OC(CF)CF)cc1F
28

----------
assay: Half life in rhesus monkey at 3 mg/kg, po or 1 mg/kg, iv; assay type: ADME, organism-based, Macaca mulatta; conditions: in vivo
MEASURED ENDPOINT: half-life (h)
Write the value in h as a bare number.

Sample records with half-life:
chemical_smiles=Cc1cc(C(=O)NC2(C(=O)N[C@H](C)c3ncc(-c4cc(Cl)cc(Cl)c4OCC(F)F)cc3F)CC2)no1 measured_endpoint=half-life observed_result=1.6
chemical_smiles=CCOc1c(Cl)cc(Cl)cc1-c1cnc([C@@H](C)NC(=O)C2(NC(=O)c3ccno3)CC2)c(F)c1 measured_endpoint=half-life observed_result=1.2

We now examine a further molecule.
What does the record list as half-life for COc1cc(C(=O)NC2(C(=O)N[C@H](C)c3ncc(-c4cc(Cl)cc(Cl)c4OCC(F)F)cc3F)CC2)on1 ?
6.2

----------
test: Half life in Mongrel dog at 1 mg/kg, iv; assay type: ADME, organism-based, Canis lupus familiaris; parameters: dose 1 mg/kg, route intravenous; details: in vivo
MEASURED ENDPOINT: half-life (min)
I only need the number, in min, no unit after it.

chemical_smiles=C[C@@H](NC(=O)C1(NC(=O)c2ccno2)CC1)c1ncc(-c2cc(Cl)cc(Cl)c2OCC(F)F)cc1F result_units=min observed_result=240
chemical_smiles=COC(=O)c1c(Cl)cc(Cl)cc1-c1ccc([C@@H](C)NC(=O)C2(NC(=O)C(F)(F)F)CC2)c(F)c1 result_units=min observed_result=96
chemical_smiles=C[C@@H](NC(=O)C1(NC(=O)c2cc(C3CC3)on2)CC1)c1ncc(-c2cc(Cl)cc(Cl)c2OCC(F)F)cc1F result_units=min observed_result=414
chemical_smiles=C[C@@H](NC(=O)C1(NC(=O)c2cc(Cl)no2)CC1)c1ncc(-c2cc(Cl)cc(Cl)c2OCC(F)F)cc1F result_units=min observed_result=2040
chemical_smiles=C[C@@H](NC(=O)C1(NC(=O)c2ccon2)CC1)c1ncc(-c2cc(Cl)cc(Cl)c2OCC(F)F)cc1F result_units=min observed_result=1080
chemical_smiles=Cc1cc(C(=O)NC2(C(=O)N[C@H](C)c3ncc(-c4cc(Cl)cc(Cl)c4OCC(F)F)cc3F)CC2)no1 result_units=min observed_result=564

Attention now turns to another entry.
I'd like to know its half-life. The compound in question is CCc1cc(C(=O)NC2(C(=O)N[C@H](C)c3ncc(-c4cc(Cl)cc(Cl)c4OCC(F)F)cc3F)CC2)no1
270

----------
assay: Apparent permeability by cell based assay; type: ADME; conditions: not told
MEASURED ENDPOINT: Papp (×10⁻⁶ cm/s)
State just the number; it will be interpreted in ×10⁻⁶ cm/s.

Which Papp value is on record for Cc1cc(C(=O)NC2(C(=O)N[C@H](C)c3ncc(-c4cc(Cl)cc(Cl)c4OCC(F)F)cc3F)CC2)no1 ?
23

Same question for C[C@@H](NC(=O)C1(NC(=O)c2cc(C3CC3)on2)CC1)c1ncc(-c2cc(Cl)cc(Cl)c2OCC(F)F)cc1F please.
18

Now the same for CCOc1cc(C(=O)NC2(C(=O)N[C@H](C)c3ncc(-c4cc(Cl)cc(Cl)c4OCC(F)F)cc3F)CC2)on1
25

----------
target: B1 bradykinin receptor (Homo sapiens) (UniProt P46663); test: Ex vivo receptor occupancy at bradykinin B1 receptor
// reported Occ90 for each item listed
Write it as a number; the unit nM goes unstated.

chemical_smiles=CCOc1c(Cl)cc(Cl)cc1-c1cnc([C@@H](C)NC(=O)C2(NC(=O)C(F)(F)F)CC2)c(F)c1 result_units=nM observed_result=1450

Give the measured Occ90 of COc1cc(C(=O)NC2(C(=O)N[C@H](C)c3ncc(-c4cc(Cl)cc(Cl)c4OCC(F)F)cc3F)CC2)on1 .
540

Okay, and CCOc1c(Cl)cc(Cl)cc1-c1cnc([C@@H](C)NC(=O)C2(NC(=O)c3ccno3)CC2)c(F)c1 ?
380

Next molecule up: Cc1cc(C(=O)NC2(C(=O)N[C@H](C)c3ncc(-c4cc(Cl)cc(Cl)c4OCC(F)F)cc3F)CC2)no1
940
